# Tested on: ATP;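 note: ATP exposure 15 min at 22 °C before imaging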
# assayExplanation: switch fluorescence ratio, 500 uM ATP over buffer (Cy3 cluster intensity, sum of 5 cycles each) (fold (ratio)); higher = stronger signal-on switching upon ATP binding; sequences stand for … in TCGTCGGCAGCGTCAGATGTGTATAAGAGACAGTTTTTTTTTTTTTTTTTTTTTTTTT…TC
# conditionsUsed: aptamer strand: ATP DNA aptamer (quencher-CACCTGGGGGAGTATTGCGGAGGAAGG + anchor), 100 nM annealed; ATP concentration: 500 uM
# cutoff 1 applies to switch fluorescence ratio; >= gives 1, < gives 0

Worked set:
residueString	targetOrTestSystem	group
TAATTCGAG	ATP	1
GTGTGAGGGT	ATP	1
CACTTGGGTG	ATP	1

Asked: Has `TTGGGCCATG` a recorded switch fluorescence ratio greater than or equal to 1?
Given back: 1

###

# Test system: ATP;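 note: ATP exposure 15 min at 22 °C before imaging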
# assayExplanation: switch fluorescence ratio, 500 uM ATP over buffer (Cy3 cluster intensity, sum of 5 cycles each) (fold (ratio)); higher = stronger signal-on switching upon ATP binding; sequences stand for … in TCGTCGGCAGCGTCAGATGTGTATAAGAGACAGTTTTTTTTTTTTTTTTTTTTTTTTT…TC
# conditionsUsed: aptamer strand: ATP DNA aptamer (quencher-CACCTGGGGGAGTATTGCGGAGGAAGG + anchor), 100 nM annealed; ATP concentration: 500 uM
readout: switch fluorescence ratio

Consider the following illustrative entries.
residueString	testValue
CGGCCATCGG	0.998
AAAAGGGGGG	1.02
TGGCTTAGTT	0.996
GTAGGACATC	1.01
CTTTGACGGG	0.989

Report switch fluorescence ratio for every entry below.
1. TTAGGTACCG
2. ACGGTTTTTC
3. TTATAAGTTA

Given back:
1.01
1
0.981

Report switch fluorescence ratio for every entry below.
1. ATAACAGAGG
2. AGGGTCCACG
3. GTGATTGTTT
4. CCAACGGGGG
5. GATGGCTGTG
6. TTTCTGGGGT
7. CTTAACGGCG

Given back:
1.04
0.947
1.01
1.06
1.02
1.01
0.968

Report switch fluorescence ratio for every entry below.
1. AGGTTGTGCT
2. TTGGGGGCGC
3. AATTTGTGCG
4. CCAGAAGTGA
5. GAGCTATCAC

Given back:
1: 0.964; 2: 1.01; 3: 0.991; 4: 1.08; 5: 1.16

###

# Test system: ATP;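 note: ATP exposure 15 min at 22 °C before imaging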
# assayExplanation: switch fluorescence ratio, 500 uM ATP over buffer (Cy3 cluster intensity, sum of 5 cycles each) (fold (ratio)); higher = stronger signal-on switching upon ATP binding; sequences stand for … in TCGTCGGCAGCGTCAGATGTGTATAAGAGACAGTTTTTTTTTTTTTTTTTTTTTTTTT…TC
# conditionsUsed: aptamer strand: ATP DNA aptamer (quencher-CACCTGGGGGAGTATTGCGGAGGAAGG + anchor), 100 nM annealed; ATP concentration: 500 uM
# cutoff 1 applies to switch fluorescence ratio; >= gives met, < gives not met

Worked set:
residueString	targetOrTestSystem	group
TCTAATTACA	ATP	met
AATGCGGGGA	ATP	met
AGGAGGGCGA	ATP	not met
CCATGGCGGT	ATP	met
TTTTGTCAAT	ATP	met

Asked: Has `GGGGAGGCAT` a recorded switch fluorescence ratio greater than or equal to 1?
Given back: not met

Asked: Has `TACGAATCTG` a recorded switch fluorescence ratio greater than or equal to 1?
Given back: met

Asked: Has `CCGTTGTGGT` a recorded switch fluorescence ratio greater than or equal to 1?
Given back: met

Asked: Has `AACCAGTGGC` a recorded switch fluorescence ratio greater than or equal to 1?
Given back: met

Asked: Has `CCAGGGGGGA` a recorded switch fluorescence ratio greater than or equal to 1?
Given back: met

Asked: Has `AGGGACGCGC` a recorded switch fluorescence ratio greater than or equal to 1?
Given back: met

###

Would you mind telling me the reported switch fluorescence ratio of each entry?
# Tested on: ATP;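 note: ATP exposure 15 min at 22 °C before imaging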
# assayExplanation: switch fluorescence ratio, 500 uM ATP over buffer (Cy3 cluster intensity, sum of 5 cycles each) (fold (ratio)); higher = stronger signal-on switching upon ATP binding; sequences stand for … in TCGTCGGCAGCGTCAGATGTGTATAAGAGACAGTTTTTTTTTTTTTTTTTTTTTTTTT…TC
# conditionsUsed: aptamer strand: ATP DNA aptamer (quencher-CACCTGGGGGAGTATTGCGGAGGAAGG + anchor), 100 nM annealed; ATP concentration: 500 uM

Consider the following illustrative entries.
residueString	switch fluorescence ratio
ATTAAAAATC	0.968
TTTTTACCCT	1.08

Report switch fluorescence ratio for every entry below.
1. TTAGCAGCGC
2. CAGCAGGGGG
3. CGGCATGAGG
4. TCCGTCTGTT

Given back:
1. 1.01
2. 1.07
3. 0.972
4. 1

Report switch fluorescence ratio for every entry below.
1. ATGGGAATTT
2. GGGGATGGCA
3. AATTAGACAG
4. GGGGATCAGC
5. AATGGGAAGG
6. GCTATTGGGA
7. TCACGTGGTA

Given back:
1. 0.996
2. 1.02
3. 0.991
4. 0.991
5. 0.971
6. 1.01
7. 1.02

###

# Tested on: ATP;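 note: ATP exposure 15 min at 22 °C before imaging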
# assayExplanation: switch fluorescence ratio, 500 uM ATP over buffer (Cy3 cluster intensity, sum of 5 cycles each) (fold (ratio)); higher = stronger signal-on switching upon ATP binding; sequences stand for … in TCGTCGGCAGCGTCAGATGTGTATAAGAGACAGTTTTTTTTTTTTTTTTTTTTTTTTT…TC
# conditionsUsed: aptamer strand: ATP DNA aptamer (quencher-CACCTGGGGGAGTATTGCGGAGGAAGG + anchor), 100 nM annealed; ATP concentration: 500 uM
readout: switch fluorescence ratio
Numbers only.

Consider the following illustrative entries.
residueString	testValue
CGTTTGCGAT	0.989
CCTACTTGGC	1.16
TCAGGGGTTC	0.992

Report switch fluorescence ratio for every entry below.
1. TCAACCAATG
2. TATATGGGTT
3. GATGCTCCTT
4. CTTGACGGTC
5. TGGGCCAGA
6. CCGGGCGTGG
7. GAGATGGGTA

Given back:
[1.04, 0.985, 1.05, 1.11, 1.01, 1.09, 0.997]

Report switch fluorescence ratio for every entry below.
1. TCATTTGGGA
2. AGCATAATAT

Given back:
1: 1.01; 2: 1.05

Report switch fluorescence ratio for every entry below.
1. TAAGAATGTT
2. ATGGGCTGAG
3. TTCCAGGGCA
4. GGTGTCATAT
5. ATAGATGCTT

Given back:
1. 0.977
2. 0.992
3. 1.02
4. 0.984
5. 1

Report switch fluorescence ratio for every entry below.
1. CTAAAATTGA
2. TCAGGGACAG
3. CTATTATAGT

Given back:
1: 0.985; 2: 1.02; 3: 0.984

###

# Tested on: ATP;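 note: ATP exposure 15 min at 22 °C before imaging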
# assayExplanation: switch fluorescence ratio, 500 uM ATP over buffer (Cy3 cluster intensity, sum of 5 cycles each) (fold (ratio)); higher = stronger signal-on switching upon ATP binding; sequences stand for … in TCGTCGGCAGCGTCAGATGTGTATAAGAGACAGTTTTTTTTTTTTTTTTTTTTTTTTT…TC
# conditionsUsed: aptamer strand: ATP DNA aptamer (quencher-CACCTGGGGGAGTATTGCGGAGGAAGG + anchor), 100 nM annealed; ATP concentration: 500 uM
# cutoff 1 applies to switch fluorescence ratio; >= gives 1, < gives -1

residueString	group
GCGGGGGTTT	1
CCTTTTGTAC	1

Asked: Has `GGTGACTGCT` a recorded switch fluorescence ratio greater than or equal to 1?
Given back: -1

Asked: Has `GGAGTACGGC` a recorded switch fluorescence ratio greater than or equal to 1?
Given back: 1

Asked: Has `ACGTCCGCTA` a recorded switch fluorescence ratio greater than or equal to 1?
Given back: 1

Asked: Has `GTGATGGAAA` a recorded switch fluorescence ratio greater than or equal to 1?
Given back: -1

Asked: Has `CATCGATGTT` a recorded switch fluorescence ratio greater than or equal to 1?
Given back: 1

###

# Test system: ATP;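 note: ATP exposure 15 min at 22 °C before imaging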
# assayExplanation: switch fluorescence ratio, 500 uM ATP over buffer (Cy3 cluster intensity, sum of 5 cycles each) (fold (ratio)); higher = stronger signal-on switching upon ATP binding; sequences stand for … in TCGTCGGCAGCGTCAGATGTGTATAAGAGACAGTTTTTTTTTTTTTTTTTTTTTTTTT…TC
# conditionsUsed: aptamer strand: ATP DNA aptamer (quencher-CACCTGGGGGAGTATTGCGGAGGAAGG + anchor), 100 nM annealed; ATP concentration: 500 uM
# cutoff 1 applies to switch fluorescence ratio; >= gives MET, < gives NOT MET

Worked set:
residueString	group
ATGCAGTATT	MET
AAGGTGAGGG	MET
AAAGAGCGCC	NOT MET

Asked: Has `CCTGGGGATC` a recorded switch fluorescence ratio greater than or equal to 1?
Given back: MET

Asked: Has `GGGCCTGAAA` a recorded switch fluorescence ratio greater than or equal to 1?
Given back: MET
